src = patent US12054510B2

M.I. %: maximum percentage inhibition of cell viability values for the compounds below.
- Test system: MCF-7
- assayName: CellTiterGlo cell viability assay, initial screening
- Format: cell-based
- setupConditions: MCF-7; 72 hr; Table II
Provide only the numeric value, understood in %.

compound	measurementTarget	val
C[C@H](NP(=O)(OC[C@@H]1C[C@@H](OP(=O)(N[C@@H](C)C(=O)OCc2ccccc2)Oc2ccccc2)[C@H](n2cnc3c(N)ncnc32)O1)Oc1ccccc1)C(=O)OCc1ccccc1 (stereo partly drawn) [H]	MCF-7	94
Nc1ncnc2c1ncn2[C@@H]1O[C@H](COP(=O)(NCC(=O)OCc2ccccc2)Oc2ccccc2)C[C@H]1O (stereo partly drawn) [C]	MCF-7	87

## Task Field request: M.I. %: maximum percentage inhibition of cell viability | item: C[C@H](NP(=O)(OC[C@@H]1C[C@@H](O)[C@H](n2cnc3c(N)ncnc32)O1)Oc1cccc2ccccc12)C(=O)OCc1ccccc1 (stereo partly drawn) [B]
## Result 99
